- studySystem: Calpain-1 catalytic subunit (Homo sapiens)
- Sequence (P07384 whole entry): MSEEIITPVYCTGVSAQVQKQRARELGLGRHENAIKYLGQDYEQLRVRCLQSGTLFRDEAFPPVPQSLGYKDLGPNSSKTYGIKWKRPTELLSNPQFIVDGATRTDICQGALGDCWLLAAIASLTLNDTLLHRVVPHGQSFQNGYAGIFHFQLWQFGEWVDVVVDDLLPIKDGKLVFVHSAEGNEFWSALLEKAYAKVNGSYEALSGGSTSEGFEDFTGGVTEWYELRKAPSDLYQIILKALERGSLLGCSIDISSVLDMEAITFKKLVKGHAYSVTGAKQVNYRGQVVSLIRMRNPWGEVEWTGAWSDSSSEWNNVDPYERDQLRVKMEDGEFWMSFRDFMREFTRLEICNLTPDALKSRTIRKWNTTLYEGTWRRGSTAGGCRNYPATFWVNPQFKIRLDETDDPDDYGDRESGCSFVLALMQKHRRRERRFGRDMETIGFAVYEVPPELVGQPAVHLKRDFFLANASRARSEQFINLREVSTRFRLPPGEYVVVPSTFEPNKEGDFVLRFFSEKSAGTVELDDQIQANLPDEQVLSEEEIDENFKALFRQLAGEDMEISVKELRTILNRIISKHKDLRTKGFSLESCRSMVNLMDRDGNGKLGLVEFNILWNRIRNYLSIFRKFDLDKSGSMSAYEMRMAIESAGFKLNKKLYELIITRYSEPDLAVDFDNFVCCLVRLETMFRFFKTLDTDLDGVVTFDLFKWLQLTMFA
- assayOverview: Tested for inhibitory activity against calpain.
pKi: −log10 of the molar value. Where a SMILES comes first, the peptide text is derived from it. [ ]: non-standard residue; d: D form. The star is where a group is joined. ξ: configuration not given here. NMeF = CN[C@@H](Cc1ccccc1)C(=O)O; Cbz = O=C(OCc1ccccc1)*; ξV = CC(C)C(N)C(=O)O
Classification field: True = pKi at or over 6; False = pKi under 6.

*Q* Hi, just wondering whether "CC(C)[C@@H](NC(=O)OCc1ccccc1)C(=O)N1CCO[C@@H](O)[C@@H]1Cc1ccccc1" shows pKi of 6 or higher.
*A* False

*Q* Please tell me: is the compound CC(C)C(NC(=O)OCc1ccccc1)C(=O)N(C)[C@H](C=O)Cc1ccccc1 (stereo partly specified) (Cbz-[ξV]-[NMeF]-aldehyde) at or over 6 in terms of pKi?
*A* True

*Q* Hi, just wondering whether "O=C1c2ccccc2C(=O)N1[C@H]1CCC[C@H]2O[C@@H](O)[C@H](Cc3ccccc3)N2C1=O.O=C1c2ccccc2C(=O)N1[C@H]1CCC[C@H]2O[C@H](O)[C@@H](Cc3ccccc3)N2C1=O" shows pKi of 6 or higher.
*A* False

*Q* Does the reported pKi for CC(C)C(NC(=O)OCc1ccccc1)C(=O)N(CO)[C@H](C=O)Cc1ccccc1 (stereo partly specified) fall at or above the 6 mark?
*A* True

*Q* Is the recorded value of pKi equal to or greater than 6 for this compound? CC(C)C(NC(=O)OCc1ccccc1)C(=O)N1CO[C@@H](O)[C@@H]1Cc1ccccc1 (stereo partly specified)
*A* True

meta.source: ChEMBL document CHEMBL1131841
